- tested-target: human TRPA1 (hTRPA1) (Homo sapiens, UniProt O75762)
- Construct: expressed in transfected cells
- Sequence (O75762 whole entry): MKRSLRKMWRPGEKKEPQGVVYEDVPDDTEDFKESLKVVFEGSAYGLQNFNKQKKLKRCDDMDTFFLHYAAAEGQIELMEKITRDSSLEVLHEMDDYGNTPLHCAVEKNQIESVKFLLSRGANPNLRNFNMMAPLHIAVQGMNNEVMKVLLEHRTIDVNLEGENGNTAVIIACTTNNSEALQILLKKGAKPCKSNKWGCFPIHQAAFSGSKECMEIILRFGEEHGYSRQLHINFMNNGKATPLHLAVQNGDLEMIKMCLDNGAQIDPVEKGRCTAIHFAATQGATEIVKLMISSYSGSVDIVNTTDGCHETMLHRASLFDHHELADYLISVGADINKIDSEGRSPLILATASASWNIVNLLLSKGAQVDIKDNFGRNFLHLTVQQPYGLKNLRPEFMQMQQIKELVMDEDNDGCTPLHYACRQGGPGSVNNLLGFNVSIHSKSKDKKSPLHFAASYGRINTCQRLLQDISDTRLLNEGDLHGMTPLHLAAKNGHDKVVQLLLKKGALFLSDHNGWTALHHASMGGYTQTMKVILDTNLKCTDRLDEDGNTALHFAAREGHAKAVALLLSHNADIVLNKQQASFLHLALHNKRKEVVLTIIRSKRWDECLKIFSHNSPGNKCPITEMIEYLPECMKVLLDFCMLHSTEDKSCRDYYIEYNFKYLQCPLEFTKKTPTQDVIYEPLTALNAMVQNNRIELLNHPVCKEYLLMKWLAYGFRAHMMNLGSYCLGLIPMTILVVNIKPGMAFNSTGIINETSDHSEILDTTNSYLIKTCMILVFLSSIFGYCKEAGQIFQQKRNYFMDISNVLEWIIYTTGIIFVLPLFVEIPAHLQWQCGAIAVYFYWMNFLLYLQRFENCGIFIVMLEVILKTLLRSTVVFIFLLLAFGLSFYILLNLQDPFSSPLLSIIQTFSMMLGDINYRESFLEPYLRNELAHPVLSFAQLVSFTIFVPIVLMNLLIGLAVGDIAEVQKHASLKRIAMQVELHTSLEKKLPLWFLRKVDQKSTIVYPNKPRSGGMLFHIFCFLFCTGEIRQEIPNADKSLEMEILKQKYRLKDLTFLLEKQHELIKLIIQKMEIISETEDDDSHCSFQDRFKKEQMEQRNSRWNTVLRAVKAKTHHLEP
- experiment-summary: hTRPA1 IC50 in presence of albumin and plasma, whole-cell patch clamp
- Type: cell-based
- condition-info: 1% (w/v) rat serum albumin, 20 μM AITC; read-out: IC50 + RSA
recorded-endpoint: pIC50
Notebook: values listed as pIC50 are -log10 of the concentration (mol/L).

Summary: C[C@@H](C(=O)Nc1ccnc(-c2cnc(N3CCC[C@H]3C(F)(F)F)nc2)n1)n1cnc2c1c(=O)n(C)c(=O)n2C , human TRPA1 (hTRPA1) (Homo sapiens, UniProt O75762), pIC50 = 7.02
